Value source: ChEMBL document CHEMBL1201862

Experiment: NIH3T3 cell viability loss – ATP luminescence, mouse fibroblasts, counter-screen, dose response (AID 2010);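 further: cells exposed to compound for about 90 hours before reading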
Type: functional, cell-based
Active and inactive are the calls of the source. No stated cut-off is given here; in the data, actives have a measured EC50 and inactives only a lower limit.

MOLECULE: CN(CC1CCCN(CCc2cccc(C(F)(F)F)c2)C1)C(=O)c1cc2ccccc2o1 (centres undefined)
EC50: 8.57 µM (active)
//
MOLECULE: O=[N+]([O-])c1ccc(N2CCN(S(=O)(=O)c3ccc(Cl)c(Cl)c3)CC2)cc1NCCN1CCOCC1
EC50: > 60 µM (not active)
//
MOLECULE: CCC(C(=O)OCC(=O)Nc1ccc(SC(F)F)cc1)c1ccccc1 (centres undefined)
EC50: > 60 µM (not active)
//
MOLECULE: O=C(CN(c1ccc(Br)cc1)S(=O)(=O)c1ccc(Cl)c([N+](=O)[O-])c1)NCCc1ccccc1
EC50: > 60 µM (not active)
//
MOLECULE: CCCCCCCCCCOC(=O)Cn1c(COc2cccc(OC)c2)[n+](C)c2ccccc21
EC50: > 60 µM (not active)
//
MOLECULE: Cc1ccc(/C(C#N)=C\c2ccc(N3CCOCC3)o2)cc1
EC50: > 60 µM (inconclusive)
//
MOLECULE: Cc1ccc(NC(=S)N2CCN(CCN3C(=O)c4cccc5cccc(c45)C3=O)CC2)cc1
EC50: > 60 µM (not active)
//
MOLECULE: Cc1ccn2c(Nc3ccccc3C)c(-c3ccncc3)nc2c1
EC50: > 60 µM (not active)
//
MOLECULE: CN(C)CCCn1c(SCC(=O)N2c3ccccc3Sc3ccccc32)nc2ccccc2c1=O
EC50: > 60 µM (not active)
